Biological target: T1, Human purified factor H (human, UniProt P08603 19-1231)
T1 construct: mature; Full length plasma-purified protein; also called FH; full length FH
T1 sequence (P08603 19-1231): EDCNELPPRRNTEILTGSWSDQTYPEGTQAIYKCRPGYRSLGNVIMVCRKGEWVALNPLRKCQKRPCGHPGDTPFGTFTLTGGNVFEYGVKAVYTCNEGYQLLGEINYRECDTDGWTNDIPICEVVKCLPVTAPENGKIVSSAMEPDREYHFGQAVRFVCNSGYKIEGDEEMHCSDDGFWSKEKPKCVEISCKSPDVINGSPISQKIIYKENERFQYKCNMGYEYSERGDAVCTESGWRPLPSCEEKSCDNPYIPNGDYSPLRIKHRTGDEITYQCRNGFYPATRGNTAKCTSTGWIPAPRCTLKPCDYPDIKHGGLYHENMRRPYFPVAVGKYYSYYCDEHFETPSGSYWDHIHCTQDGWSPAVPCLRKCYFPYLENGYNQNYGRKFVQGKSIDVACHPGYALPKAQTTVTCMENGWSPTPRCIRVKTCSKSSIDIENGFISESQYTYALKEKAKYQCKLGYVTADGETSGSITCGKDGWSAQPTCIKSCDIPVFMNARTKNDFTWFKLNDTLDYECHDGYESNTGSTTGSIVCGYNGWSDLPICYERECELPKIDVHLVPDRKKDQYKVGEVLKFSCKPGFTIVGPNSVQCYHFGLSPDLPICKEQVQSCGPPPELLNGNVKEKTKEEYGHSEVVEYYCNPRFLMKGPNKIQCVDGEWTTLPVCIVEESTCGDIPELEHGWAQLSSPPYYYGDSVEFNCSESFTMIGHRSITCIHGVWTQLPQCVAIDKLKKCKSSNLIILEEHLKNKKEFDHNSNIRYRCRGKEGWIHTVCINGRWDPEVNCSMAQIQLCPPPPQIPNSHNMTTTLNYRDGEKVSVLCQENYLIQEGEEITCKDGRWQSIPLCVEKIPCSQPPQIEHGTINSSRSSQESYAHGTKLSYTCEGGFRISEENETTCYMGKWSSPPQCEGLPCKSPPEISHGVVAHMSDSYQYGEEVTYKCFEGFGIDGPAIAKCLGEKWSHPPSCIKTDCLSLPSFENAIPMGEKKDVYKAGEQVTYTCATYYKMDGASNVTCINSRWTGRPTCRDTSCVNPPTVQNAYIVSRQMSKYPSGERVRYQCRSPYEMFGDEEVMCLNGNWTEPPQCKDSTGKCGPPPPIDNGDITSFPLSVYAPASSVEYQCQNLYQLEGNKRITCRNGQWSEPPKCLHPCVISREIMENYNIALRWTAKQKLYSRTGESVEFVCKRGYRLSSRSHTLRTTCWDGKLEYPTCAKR
Experiment: SPR (BiaCore T200), antibody captured on Protein A or Protein G chip, full length FH flowed over
Method: To determine binding affinity of Antibodies 1-4, surface plasmon resonance (SPR) experiments were performed using a BiaCore T200 (GE Healthcare) and CMS sensor chips (GE Healthcare) in accordance with the manufacturer's instructions. Briefly, Antibodies […] or anti-FHR-1.3B4 were captured onto a Protein A or Protein G coupled chip and full length FH was flown over the captured moAB at decreasing concentrations.
Entries and their measured kon follow.
API: value field is a number in M⁻¹ s⁻¹; no unit string.

Study these solved cases before continuing.
1. Antibody 3 (antibody, V domains shown) VH: QVQLQESGPGLVKPSQTLSLTCTVSGFSLTNYGVYWIRQHPGKGLEWIGVVWSGGTTEFNPSLKSRVTISKDTSKNQVSLKLSSVTAADTAVYYCARNFGNYAMDYWGQGTSVTVSS VL: DIQLTQSPSSLSASVGDRVTITCRASTSVTYMHWYQQKPGKAPKPLIYASSNLASGVPSRFSGSGSGTDFTLTISSLQPEDFATYYCQHRSSSNPLTFGAGTKLELK = 48500
2. FHR-1.3B4 (antibody, V domains shown, Mouse monoclonal antibody raised in BALB/c mice against recombinant human FHR-1 (hybridoma); kappa light chain implied by capture on rat anti-mouse kappa RM19; also called anti-FHR-1.3B4; anti-FHR-1 3B4) VH: QVQLRQSGPGLVQPSQSLSITCTVSGFSLTNYGVYWVRQSPGKGLEWLGVIWSGGTTDYSAAFISRLSISKDNSKSQVFFKMNSLQADDTAIYYCARNFGNYAMDYWGQGTSVTVSS VL: QIVLSQSPTILSASPGEKVTMTCRASSSVTYMHWYQQKPGSSPKPWIYATSNLASGVPARFSGSGSGTSYSLTISRVEAEDAATYYCQQRSSSNPLTFGAGTKLELK = 59500

// recorded kon for Antibody 2 (antibody, V domains shown) VH: QVQLQESGPGLVKPSQTLSLTCTVSGFSLTNYGVYWIRQHPGKGLEWIGVIWSGGTTEYNPSMKSRVTISKDTSKNQVSLKLSSVTAADTAVYYCARNFGNYAMDFWGQGTSVTVSS VL: DIQLTQSPSSLSASVGDRVTITCKASSSVTYLHWYQQKPGKAPKPLIYATSNLASGVPSRFSGSGSGTDFTLTISSLQPEDFATYYCQHRSSSNPLTFGAGTKLELK : 58500
